Listed here are compounds together with their documented activity at 20 min, 10 µM.
# tested-on: CYP1A2 (Homo sapiens, UniProt P05177)
# Sequence (P05177 whole entry): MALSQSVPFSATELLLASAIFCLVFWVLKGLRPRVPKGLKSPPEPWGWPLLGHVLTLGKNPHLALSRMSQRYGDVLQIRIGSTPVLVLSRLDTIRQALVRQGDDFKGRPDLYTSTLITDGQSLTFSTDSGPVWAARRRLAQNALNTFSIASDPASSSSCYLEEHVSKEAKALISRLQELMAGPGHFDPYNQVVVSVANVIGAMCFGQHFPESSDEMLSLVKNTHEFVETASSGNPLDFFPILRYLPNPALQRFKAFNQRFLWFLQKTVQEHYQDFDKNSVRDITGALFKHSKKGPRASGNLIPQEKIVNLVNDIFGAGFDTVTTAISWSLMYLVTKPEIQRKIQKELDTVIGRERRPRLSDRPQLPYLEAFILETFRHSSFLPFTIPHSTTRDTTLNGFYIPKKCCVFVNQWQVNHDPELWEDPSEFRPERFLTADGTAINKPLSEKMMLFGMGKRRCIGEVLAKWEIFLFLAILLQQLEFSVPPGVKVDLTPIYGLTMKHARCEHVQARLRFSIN
# test-method-notes: Inhibition of CYP1A2 in human liver microsomes assessed as enzyme remaining activity at 10 uM using phenacetin as substrate incubated for 20 mins in presence of NADPH by LC-MS/MS analysis relative to control
# Assay type: ADME
# settings: probe phenacetin, read-out: Activity
measure-name: activity at 20 min, 10 µM (%)

>>> assay_value("O=C(Nc1ccc(OCCCCc2ccccc2)cc1)N(Cc1ccccc1)S(=O)(=O)c1ccc(Cl)cc1")
69.4
>>> assay_value("O=C(Oc1ccc(OCc2ccccc2)cc1)N(Nc1ccccc1)S(=O)(=O)c1ccc(Cl)cc1")
75.7
>>> assay_value("O=C(Oc1ccc(OCc2ccccc2)cc1)N(Cc1ccccc1)S(=O)(=O)c1ccc(Cl)cc1")
99.4
